Test: Membrane permeability (Papp) across Caco-2 cell monolayer, apical to basolateral
Format: in vitro ADME
Settings: human, Caco-2, apical to basolateral, 37° C.
Method: Determination of membrane permeability in all examples described herein was accomplished by the following procedure. […] Transport across Caco-2 cell monolayer was measured at 37° C., in the apical to basolateral direction (n=3). […] The transport rate J, is calculated as the slope of the linear regression fit for the transport amount over time data using Microsoft Excel® 97 SR-2 (Microsoft Corp. Redmond, Wash.). […]
readout_label: Papp A→B at 60 min, 10 μM (×10⁻⁶ cm/s)
Enter your answer as a number in ×10⁻⁶ cm/s; do not include the unit.

Kindly note the recorded Papp A→B at 60 min, 10 μM for Cc1c(OCC(F)(F)F)ccnc1C[S+]([O-])c1nc2ccccc2[nH]1 (centres unmarked) [Lansoprazole, reference compound] , which is 15

Kindly note the recorded Papp A→B at 60 min, 10 μM for COc1ccc2[nH]c([S+]([O-])Cc3ncc(C)c(OC)c3C)nc2c1 (centres unmarked) [Omeprazole, reference compound] , which is 13

###

system: Caco-2 cells; test: Membrane permeability (Papp) across Caco-2 cell monolayer, apical to basolateral; type: in vitro ADME; settings: Caco-2, apical to basolateral, 10 μM, 37° C.
Please respond with reported Permeability for every item in the list.
Enter your answer as a number in ×10⁻⁶ cm/s; do not include the unit.

Kindly note the recorded Permeability for COc1ccc2c(c1)nc([S+]([O-])Cc1ncc(C)c(OC)c1C)n2S(=O)(=O)c1c(C)cc(OCC(=O)O)cc1C (stereo not shown) [Compound 2] , which is 0.054

Kindly note the recorded Permeability for Cc1c(OCC(F)(F)F)ccnc1C[S+]([O-])c1nc2ccccc2n1S(=O)(=O)c1cccc(C(=O)O)c1 (stereo not shown) [Compound 7] , which is 0.16

Kindly note the recorded Permeability for COc1ccc2c(c1)nc([S+]([O-])Cc1ncc(C)c(OC)c1C)n2S(=O)(=O)c1ccc(OCC(C)(C)C(=O)O)cc1 (stereo not shown) [Compound 3] , which is 0.38

Kindly note the recorded Permeability for COc1ccc2c(c1)nc([S+]([O-])Cc1ncc(C)c(OC)c1C)n2S(=O)(=O)c1ccc(OCC(=O)O)cc1 (stereo not shown) [Compound 1] , which is 0.12

###

assay: Systemic half-life after oral or intravenous administration in rats; assay type: in vivo, rats (Sprague-Dawley); settings: rats; oral solution; systemic half-life of the proton pump inhibitor; unit inferred
readout_label: Rat T1/2 PPI
Please answer using the number first and the unit second.

Kindly note the recorded Rat T1/2 PPI for COc1ccc(S(=O)(=O)n2c([S+]([O-])Cc3nccc(OCC(F)(F)F)c3C)nc3ccccc32)cc1CCC(=O)O (stereo not shown) [Compound 38] , which is 1.43 h

Kindly note the recorded Rat T1/2 PPI for COc1ccc(C(=O)O)cc1S(=O)(=O)n1c([S+]([O-])Cc2nccc(OCC(F)(F)F)c2C)nc2ccccc21 (stereo not shown) [Compound 14] , which is 0.536 h

Kindly note the recorded Rat T1/2 PPI for Cc1cc(OCC(=O)O)cc(C)c1S(=O)(=O)n1c([S+]([O-])Cc2nccc(OCC(F)(F)F)c2C)nc2ccccc21 (stereo not shown) [Compound 34] , which is 1.11 h

Kindly note the recorded Rat T1/2 PPI for COc1ccc2c(c1)nc([S+]([O-])Cc1ncc(C)c(OC)c1C)n2S(=O)(=O)c1ccc(OCC(=O)O)c(OCC(=O)O)c1 (stereo not shown) [Compound 24] , which is 0.384 h

Kindly note the recorded Rat T1/2 PPI for Cc1ccc(C(=O)O)cc1S(=O)(=O)n1c([S+]([O-])Cc2nccc(OCC(F)(F)F)c2C)nc2ccccc21 (stereo not shown) [Compound 13] , which is 2.35 h

Kindly note the recorded Rat T1/2 PPI for Cc1c(OCC(F)(F)F)ccnc1C[S+]([O-])c1nc2ccccc2n1S(=O)(=O)c1ccc(C(=O)O)c(OCC(=O)O)c1 (stereo not shown) [Compound 16] , which is 1.86 h

Kindly note the recorded Rat T1/2 PPI for COc1ccnc(C[S+]([O-])c2nc3cc(OC(F)F)ccc3n2S(=O)(=O)c2ccc(OCC(=O)O)cc2)c1OC (stereo not shown) [Compound 28] , which is 1.45 h

###

test: Systemic half-life after oral or intravenous administration in rats; type: in vivo, rats (Sprague-Dawley); settings: Sprague-Dawley, rat, blood; rats; oral solution; systemic half-life of the proton pump inhibitor; unit inferred; read-out: Rat T1/2 PPI (converted)
readout_label: half-life

Kindly note the recorded half-life for COc1ccc2[nH]c([S+]([O-])Cc3ncc(C)c(OC)c3C)nc2c1 (stereo not drawn) [Omeprazole, reference compound] , which is 18.5 min

Kindly note the recorded half-life for COc1ccnc(C[S+]([O-])c2nc3ccc(OC(F)F)cc3[nH]2)c1OC (stereo not drawn) [Pantoprazole, reference compound] , which is 41.8 min

Kindly note the recorded half-life for Cc1c(OCC(F)(F)F)ccnc1C[S+]([O-])c1nc2ccccc2[nH]1 (stereo not drawn) [Lansoprazole, reference compound] , which is 30.6 min

###

experiment: Systemic half-life after oral or intravenous administration in rats; type: in vivo, rats (Sprague-Dawley); conditions: Sprague-Dawley, rat, blood; rats; oral; equivalent omeprazole dose 10 mg/kg; read-out: Systemic omeprazole half-life (converted)
readout_label: half-life (min)
Enter your answer as a number in min; do not include the unit.

Kindly note the recorded half-life for COc1ccc2[nH]c([S+]([O-])Cc3ncc(C)c(OC)c3C)nc2c1 (stereo not shown) [Omeprazole, reference compound] , which is 18.6

###

experiment: Systemic half-life after oral or intravenous administration in dogs; type: in vivo, dogs (beagle); settings: beagle, dog, blood, po, 10 mg/kg, oral, equivalent omeprazole dose 10 mg/kg, read-out: Systemic omeprazole half-life (converted)
readout_label: half-life (min)
Enter your answer as a number in min; do not include the unit.

Kindly note the recorded half-life for COc1ccc2[nH]c([S+]([O-])Cc3ncc(C)c(OC)c3C)nc2c1 (stereo not shown) [Omeprazole, reference compound] , which is 42

###

assay: Systemic half-life after oral or intravenous administration in dogs; assay type: in vivo, dogs (beagle); settings: oral solution, systemic half-life of the proton pump inhibitor, unit inferred
Please respond with reported Dog T1/2 PPI for every item in the list.
Enter your answer as a number in h; do not include the unit.

Kindly note the recorded Dog T1/2 PPI for COc1ccc(S(=O)(=O)n2c([S+]([O-])Cc3nccc(OCC(F)(F)F)c3C)nc3ccccc32)cc1C(=O)O (stereo not shown) , which is 1.08

Kindly note the recorded Dog T1/2 PPI for COc1ccnc(C[S+]([O-])c2nc3cc(OC(F)F)ccc3n2S(=O)(=O)c2ccc(OCC(=O)O)cc2)c1OC (stereo not shown) , which is 2.61

Kindly note the recorded Dog T1/2 PPI for Cc1cc(OCC(=O)O)cc(C(C)C)c1S(=O)(=O)n1c([S+]([O-])Cc2nccc(OCC(F)(F)F)c2C)nc2ccccc21 (stereo not shown) , which is 1.13

Kindly note the recorded Dog T1/2 PPI for COc1ccc2c(c1)nc([S+]([O-])Cc1ncc(C)c(OC)c1C)n2S(=O)(=O)c1ccc(OCC(=O)O)cc1 (stereo not shown) , which is 2.08

###

experiment: Systemic half-life after oral or intravenous administration in dogs; type: in vivo, dogs (beagle); conditions: oral solution, systemic half-life of the proton pump inhibitor, unit inferred
readout_label: Dog T1/2 PPI (h)
Enter your answer as a number in h; do not include the unit.

Kindly note the recorded Dog T1/2 PPI for COc1ccc2c(c1)nc([S+]([O-])Cc1ncc(C)c(OC)c1C)n2S(=O)(=O)c1c(C)cc(OCC(=O)O)cc1C (stereo not shown) , which is 1.61

Kindly note the recorded Dog T1/2 PPI for Cc1c(OCC(F)(F)F)ccnc1C[S+]([O-])c1nc2ccccc2n1S(=O)(=O)c1ccc(CC(=O)O)cc1 (stereo not shown) , which is 0.894

Kindly note the recorded Dog T1/2 PPI for Cc1c(OCC(F)(F)F)ccnc1C[S+]([O-])c1nc2ccccc2n1S(=O)(=O)c1ccc(C(=O)O)cc1 (stereo not shown) , which is 0.909

Kindly note the recorded Dog T1/2 PPI for COc1ccc2c(c1)nc([S+]([O-])Cc1ncc(C)c(OC)c1C)n2S(=O)(=O)c1cc(C(=O)O)ccc1C (stereo not shown) , which is 1.1

Kindly note the recorded Dog T1/2 PPI for COc1ccc2c(c1)nc([S+]([O-])Cc1ncc(C)c(OC)c1C)n2S(=O)(=O)c1cccc(C(=O)O)c1 (stereo not shown) , which is 1.91

Kindly note the recorded Dog T1/2 PPI for Cc1c(OCC(F)(F)F)ccnc1C[S+]([O-])c1nc2ccccc2n1S(=O)(=O)c1ccc(OCC(=O)O)cc1 (stereo not shown) , which is 0.989

Kindly note the recorded Dog T1/2 PPI for COc1ccc2c(c1)nc([S+]([O-])Cc1ncc(C)c(OC)c1C)n2S(=O)(=O)c1ccc(C(=O)O)c(C(=O)O)c1 (stereo not shown) , which is 3.89
